system: OVCAR-3 ovarian; assay: NCI tumour cell line growth inhibition, 48 h
Reported TGI values for a set of compounds

Example entries and their recorded answers appear below.
| compound | TGI |
| --- | --- |
| O=C1[C@@H]2C(c3ccncc3)=NO[C@@H]2C(=O)N1c1ccc(Cc2ccc(N3C(=O)[C@H]4C(c5ccncc5)=NO[C@H]4C3=O)cc2)cc1 | > 100 µM |
| O=S(=O)([O-])[O-].[Fe+2].[OH2+]c1c(Cl)cc(Cl)cc1/C=N/Nc1ccccn1 | 0.578 µM |

Find TGI (OVCAR-3 ovarian) for the entry O=C1COc2cc3c(cc2N1)SCCC(=O)N3
> 100 µM

Tell me reported TGI for Nc1ncc(N)c(NCC2(CO)CC(CCc3ccccc3)C2)n1 (configuration not stated) , tested with OVCAR-3 ovarian.
13.3 µM

Fill in the recorded TGI for this compound, with OVCAR-3 ovarian as test system: CCC1(CC)C(=O)NN(C(=O)c2ccc(Cl)cc2)C1=O
> 100 µM

Write down the reported TGI of CC1(C)CC2C(/C1=N/O)C1(C)CCCC2(C)C1O (configuration not stated) , test system: OVCAR-3 ovarian.
> 100 µM

Hi! What's the reported TGI for CC(=O)OC1CC2C(C)(C)OC(=O)CC(OC(C)=O)[C@]2(C)C2CCC3(C)C(=CCC3c3ccoc3)[C@]12C (some centres not stated) on OVCAR-3 ovarian?
60 µM
